All values here come from paper PMC7697888.

# System tested: RXRα LBD (Homo sapiens, UniProt P19793)
# Construct: peptide to the RXRα LBD (aa 225–462) was studied
# Sequence (P19793 225-462): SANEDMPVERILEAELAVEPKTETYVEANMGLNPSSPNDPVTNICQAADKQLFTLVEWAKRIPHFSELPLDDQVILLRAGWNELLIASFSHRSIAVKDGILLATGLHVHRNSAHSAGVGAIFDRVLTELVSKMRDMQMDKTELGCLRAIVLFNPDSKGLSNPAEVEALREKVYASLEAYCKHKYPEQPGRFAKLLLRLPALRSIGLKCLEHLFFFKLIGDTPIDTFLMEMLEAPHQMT
# Experiment description: HTRF-based SRC-1 co-activator recruitment assay
# Type: biochemical
# Run parameters: HTRF, cell-free, compound alone; read-out: EC50 SRC-1 recruitment to RXRα
Outcome measure: EC50 (µM)
One number for each entry, in µM.

Example results:
Ask | Recall the recorded EC50 for CCCCCCCCCCCCCCCC(=O)O [PA, palmitic acid] with RXRα LBD (Homo sapiens, UniProt P19793) and state it.
Reply | 6.6

Ask | Observed EC50 on RXRα LBD (Homo sapiens, UniProt P19793) for CCCCCCCCCCCCCCCCCC(=O)O [SA, stearic acid] , please.
Reply | 19

---
Ask | // map CCCCCCCCCCCCCC(=O)O [MA, myristic acid] to recorded EC50 (system: RXRα LBD (Homo sapiens, UniProt P19793))
Reply | 3.2
